- Method Summary: clinical
- Condition Info: human, in vivo, iv, CL
Catalogue of clearance values
Use mL/min/kg as the unit, but write only the number.

Please review the following examples before continuing.
Compound	Observed Property	Result Value
N[C@@H](CC(=O)N1CCn2c(nnc2C(F)(F)F)C1)Cc1cc(F)c(F)cc1F [SITAGLIPTIN]	clearance	6
CC1(C)C[C@@H]1C(=O)N/C(=C\CCCCSC[C@H](N)C(=O)O)C(=O)O [CILASTATIN]	clearance	2.3
COc1cccc(C2(O)CCCCC2CN(C)C)c1 (configuration not stated) [TRAMADOL]	clearance	6.5
CN(C(=O)c1c(O)c2ccccc2n(C)c1=O)c1ccccc1 [ROQUINIMEX]	clearance	0.082
CN1CCN(CCCN2c3ccccc3Sc3ccc(Cl)cc32)CC1 [PROCHLORPERAZINE]	clearance	16
CCCC(C)C1(CC)C(=O)NC(=O)NC1=O (configuration not stated) [PENTOBARBITAL]	clearance	0.47

Req: Look up clearance for this compound: C[C@](N)(Cc1ccc(O)c(O)c1)C(=O)O [METHYLDOPA]
Resp: 3.5

Req: So what does the record say about clearance for COc1ccc(Cl)cc1[C@]1(F)C(=O)Nc2cc(C(F)(F)F)ccc21 [FLINDOKALNER] ?
Resp: 15

Req: What does the record list as clearance for CCOC(=O)C1(c2ccccc2)CCC=CC1N(C)C (configuration not stated) [TILIDINE] ?
Resp: 16

###

Quick reference: clearance of the listed items.
- Method Summary: clinical
- Condition Info: human, in vivo, iv, CL
Express it in mL/min/kg; write the number only.

Compound	Result Value
CC(C)(C)[C@]1(O)CC2OC(=O)CC23C(=O)OC2OC(=O)[C@H](O)C231 (some centres undefined) [BILOBALIDE]	10
CCOc1ccccc1OC(c1ccccc1)C1CNCCO1 (centres undefined) [REBOXETINE]	0.82
Cc1cccc(C)c1NC(=O)NCCCNC(C)C	4.5
CN1C(=O)NC(=O)C(C)(C2=CCCCC2)C1=O (centres undefined) [HEXOBARBITAL]	3.4
CCCCCN(CCCOC)C(=O)C(CCC(=O)O)NC(=O)c1ccc(Cl)c(Cl)c1 (centres undefined) [LOXIGLUMIDE]	1
NS(=O)(=O)c1cc2c(cc1C(F)(F)F)NCNS2(=O)=O [HYDROFLUMETHIAZIDE]	9.7

Req: Fill in the blank: the reported clearance of CC1(C)S[C@@H]2[C@H](NC(=O)[C@H](N)c3ccccc3)C(=O)N2[C@H]1C(=O)O [AMPICILLIN] is ____.
Resp: 2.8

Req: If you can, please state the reported clearance value of C[C@H](N[C@@H](CCc1ccccc1)C(=O)O)C(=O)N1Cc2ccccc2C[C@H]1C(=O)O .
Resp: 0.93

Req: Sample O=C1C(O)=C([C@H]2CC[C@H](c3ccc(Cl)cc3)CC2)C(=O)c2ccccc21 [ATOVAQUONE] — what was its clearance?
Resp: 0.15

###

- Method Summary: clinical
- Condition Info: human, in vivo, iv, Vdss
Class TRUE: Vd at least 0.6 L/kg. Class FALSE: Vd below 0.6 L/kg.

Compound	Classification
CCC(CC)O[C@@H]1C=C(C(=O)O)C[C@H](N)[C@H]1NC(C)=O [OSELTAMIVIR CARBOXYLATE]	FALSE

Req: Is the recorded value of Vd equal to or greater than 0.6 L/kg for this compound? Cc1nnc2n1-c1ccc(Cl)cc1C(c1ccccc1Cl)=NC2
Resp: FALSE

Req: Could you verify whether the entry CN1[C@@H]2CC[C@H]1C[C@@H](OC(=O)c1c[nH]c3ccccc13)C2 shows Vd of no less than 0.6 L/kg?
Resp: TRUE

Req: Decide: is the reported value of Vd for COc1ccc(Cl)cc1[C@]1(F)C(=O)Nc2cc(C(F)(F)F)ccc21 equal to or greater than 0.6 L/kg?
Resp: TRUE

Req: Test whether the compound N/N=c1/cc2c(n[nH]1)CCN(C(=O)c1ccccc1)C2 records Vd of 0.6 L/kg or higher.
Resp: TRUE

Req: Answer whether Vd of C[C@]12C=CC(=O)C=C1CC[C@@H]1[C@@H]2C(=O)C[C@@]2(C)[C@H]1CC[C@]2(O)C(=O)CO is greater than or equal to 0.6 L/kg.
Resp: FALSE

Req: hey, is Vd for this one >= 0.6 L/kg? N[C@@H]1CN(c2c(F)cc3c(=O)c(C(=O)O)cn([C@@H]4C[C@@H]4F)c3c2Cl)CC12CC2 [SITAFLOXACIN ANHYDROUS]
Resp: TRUE

Req: Please check the record Cc1cccc(N2CC(CO)OC2=O)c1 (configuration not stated) and state if its Vd is at or above 0.6 L/kg.
Resp: TRUE

Req: Say whether CCCC(=O)N1CCCN(c2nc(N)c3cc(OC)c(OC)cc3n2)CC1 shows Vd of 0.6 L/kg or more.
Resp: TRUE

###

- Method Summary: clinical
- Condition Info: human, in vivo, iv
Class (required): determined from MRT; valid ranges are LOW: < 5 h; MEDIUM: ≥ 5 h and < 10 h; HIGH: ≥ 10 h

Req: Form: Item = CCC(CC)O[C@@H]1C=C(C(=O)O)C[C@H](N)[C@H]1NC(C)=O [OSELTAMIVIR CARBOXYLATE] ; Class = ?
Resp: LOW

Req: Consider Cn1cc[nH]c1=S . To which MRT class does it belong?
Resp: LOW

###

Let's look at some compounds and their measured clearance.
- Method Summary: clinical
- Condition Info: human, in vivo, iv, CL
Write the number in mL/min/kg without appending the unit.

Reference set, count: 8
Compound	Display Unit	Result Value
COc1cc(NS(C)(=O)=O)ccc1Nc1c2ccccc2nc2ccccc12 [AMSACRINE]	mL/min/kg	4.3
CC(=O)Nc1c(I)c(C(=O)O)c(I)c(N(C)C(C)=O)c1I [METRIZOIC ACID]	mL/min/kg	2.7
CN1C[C@H](C(=O)N[C@]2(C)O[C@@]3(O)[C@@H]4CCCN4C(=O)[C@H](Cc4ccccc4)N3C2=O)C=C2c3cccc4[nH]cc(c34)C[C@H]21 [ERGOTAMINE]	mL/min/kg	15
CCC(C)n1ncn(-c2ccc(N3CCN(c4ccc(OCC5COC(Cn6cncn6)(c6ccc(Cl)cc6Cl)O5)cc4)CC3)cc2)c1=O (configuration not stated) [ITRACONAZOLE]	mL/min/kg	5.1
COc1cc([C@@H]2c3cc4c(cc3C(OC3OC5COC(C)OC5C(O)C3N)C3COC(=O)[C@@H]32)OCO4)cc(OC)c1O (some centres not stated) [NK-611]	mL/min/kg	0.4
Cc1[nH]cnc1CN1CCc2c(c3ccccc3n2C)C1=O [ALOSETRON]	mL/min/kg	8.7
CCN[C@@H](C)Cc1cccc(C(F)(F)F)c1 [DEXFENFLURAMINE]	mL/min/kg	11
OCCN1CCN(CCCN2c3ccccc3Sc3ccc(Cl)cc32)CC1 [PERPHENAZINE]	mL/min/kg	27

Req: Value lookup for clearance; key = COc1ccc(C(CN(C)C)C2(O)CCCCC2)cc1 (configuration not stated) [VENLAFAXINE]
Resp: 14

Req: Consider the compound shown here: CO[C@@]1(NC(=O)C(C(=O)O)c2ccc(O)cc2)C(=O)N2C(C(=O)O)=C(CSc3nnnn3C)CO[C@@H]21 (some centres not stated) [MOXALACTAM] What is its recorded clearance?
Resp: 0.72

Req: # clearance lookup, item COCCCOc1ccnc(C[S+]([O-])c2nc3ccccc3[nH]2)c1C (configuration not stated) [RABEPRAZOLE]
Resp: 4

Req: Dear colleague, I am looking for the recorded clearance of the following compound: Nc1cc(-c2ccncc2)c[nH]c1=O [INAMRINONE]
Resp: 8.9

Req: Data request, read-out clearance, for CCC1CN2CCC1CC2[C@@H](O)c1ccnc2ccc(OC)cc12 (some centres not stated) [DIHYDROQUINIDINE]
Resp: 4.2

Req: clearance for CO[C@@]1(NC(=O)Cc2cccs2)C(=O)N2C(C(=O)O)=C(COC(N)=O)CS[C@@H]21 [CEFOXITIN] ?
Resp: 3.6

Req: Dear colleague, I am looking for the recorded clearance of the following compound: CC1(C)S[C@@H]2[C@H](NC(=O)[C@H](N)c3ccc(O)cc3)C(=O)N2[C@H]1C(=O)O [AMOXICILLIN]
Resp: 3.3

Req: Report clearance for O=C(N[C@H](CO)[C@H](O)c1ccc([N+](=O)[O-])cc1)C(Cl)Cl [CHLORAMPHENICOL] please.
Resp: 2.4

Req: Fill in: clearance of CCN1CC(CCN2CCOCC2)C(c2ccccc2)(c2ccccc2)C1=O (configuration not stated) [DOXAPRAM] is ___
Resp: 5.3

###

- Method Summary: clinical
- Condition Info: human, in vivo, iv, t1/2
The entries below come with measured half-life values attached.
Numbers only here, please. The scale is h.

Known half-life results, listed for orientation:
Compound	Display Unit	half-life
CC[C@H](C)C(=O)O[C@H]1C[C@@H](C)C=C2C=C[C@H](C)[C@H](CC[C@@H]3C[C@@H](O)CC(=O)O3)[C@H]21 [LOVASTATIN]	h	1.4
CC[C@H]1OC(=O)[C@H](C)[C@@H](O[C@H]2C[C@@](C)(OC)[C@@H](O)[C@H](C)O2)[C@H](C)[C@@H](O[C@@H]2O[C@H](C)C[C@H](N(C)C)[C@H]2O)[C@](C)(OC)C[C@@H](C)C(=O)[C@H](C)[C@@H](O)[C@]1(C)O [CLARITHROMYCIN]	h	2.8

Then this compound:
Req: Fill in: half-life of COc1cc(Cc2cnc(N)nc2N)cc(OC)c1OC [TRIMETHOPRIM] is ___
Resp: 9.6
